test system: EKVX NSCLC; test: NCI tumour cell line growth inhibition, 48 h
Provide the reported TGI of each item.

Here are 10 molecules together with their reported answers.
O=c1[nH]c2c(ccc3cnccc32)c2c1CCC2 ... > 100 µM
COc1ncc(-c2ccc3nc(N)n(-c4ccccc4C(F)(F)F)c(=O)c3c2)cc1S(=O)(=O)Nc1ccc(F)cc1F ... > 100 µM
Nc1nc(-c2ccccn2)c(-c2ccc3ncccc3n2)s1 ... > 25 µM
COC(=O)[C@@H](N1C(=O)c2ccccc2C1=O)C1(C)CC(Cl)=NO1 (some centres not stated) ... > 100 µM
COc1cc(OC)cc(Oc2nc3ccc(C(F)(F)F)cc3nc2-c2ccccc2)c1 ... > 100 µM
CN(C)c1ccc(-c2cc(-c3cccc(NS(C)(=O)=O)c3)nc(N)c2C#N)cc1 ... > 63.8 µM
COc1ccc(CCN2C(=O)C(=O)C(C(=O)c3ccccc3)C2c2ccccc2)cc1OC (configuration not stated) ... > 100 µM
COC(=O)[C@]1(CCC(C)=O)C(=O)C=CN([C@H](C)c2ccccc2)[C@@H]1Cc1ccc(OC)c(OCc2ccccc2)c1I ... > 100 µM
CC1(C)OC2OC(/C=C/[N+](=O)[O-])C3OC(C)(C)OC3C2O1 (configuration not stated) ... 41.9 µM
COc1cc(C(=O)N[C@@H]2CCCN(C)C2)ccc1Nc1ncc2c(n1)N(C1CCCC1)CC(C)(C)C(=O)N2C ... 24 µM

Could you tell me TGI for each of these molecules? They are listed below.
1. O=C(O)c1ccc2nc(-c3ccccn3)c(-c3ccccn3)nc2c1
2. O=C(c1ccccc1)N1N=C(C(F)(F)F)CC1(O)C(F)(F)F (configuration not stated)
3. CC(=O)OCC1OC(NC(=S)Nn2c(-c3ccccc3)nc3ccccc3c2=O)C(OC(C)=O)C(OC(C)=O)C1OC(C)=O (configuration not stated)
4. C=C(C)[C@@H]1CC[C@]2(C(=O)OC)CC[C@]3(C)[C@H](CC[C@@H]4[C@@]5(C)CC/C(=N\OCCC(=NCCC#N)NOCCC#N)C(C)(C)[C@@H]5CC[C@]43C)[C@@H]12
5. CN1CC[C@H](N(C)C(=O)N2CC(c3cc(F)ccc3F)=C[C@@]2(CO)c2ccccc2)[C@H](F)C1
6. O=C(c1ccco1)c1c(C(F)(F)F)n([O-])c2cc(Cl)c(Cl)cc2[n+]1=O
7. COc1ccc(Cc2nc3cc(C(F)(F)F)ccc3n2C[C@@H]2CCCN3CCCCC23)cc1 (some centres not stated)
8. CCC[CH2][Sn]1([CH2]CCC)[O]C(=O)c2cccnc2[S]1

Marked response:
1: > 100 µM; 2: > 100 µM; 3: > 100 µM; 4: > 50 µM; 5: > 100 µM; 6: 1.86 µM; 7: 27.7 µM; 8: 11.9 µM

Could you tell me TGI for each of these molecules? They are listed below.
1. CC[C@H]1CNC(=O)CC1CC(=O)OC (some centres not stated)
2. COCc1nc(C#N)c(N)o1
3. Nc1cc2c(C3OC(CO)C(O)C3O)[nH]nc2c(=S)[nH]1 (configuration not stated)
4. C=CC(C)(C)[C@@]12CC3C(=O)N[C@@H](Cc4ccccc4)C(=O)N3[C@@H]1N(C(C)=O)c1ccccc12 (some centres not stated)
5. Cc1cc(C)c(CNC(=O)c2cc(Cl)c3c(c2C)O[C@@](C)(C2CCC(N(C)C)CC2)O3)c(=O)[nH]1 (some centres not stated)

Marked response:
> 100 µM
> 10 µM
> 100 µM
> 100 µM
> 100 µM

Could you tell me TGI for each of these molecules? They are listed below.
1. COc1ccccc1Nc1nc(N)nc(N)c1N
2. COC(=O)[C@@H](C)C[C@H](Cc1ccccc1)NC(=O)c1nc([C@@H](C[C@H](C(C)C)N(C)C(=O)[C@@H](NC(=O)[C@H]2CC(=O)CCN2C)C(C)C)OC(C)=O)sc1C(C)C

Marked response:
["> 100 µM", "> 16.7 µM"]

Could you tell me TGI for each of these molecules? They are listed below.
1. CC1(C)CCC(c2ccc(Cl)cc2)=C(CN2CCN(c3ccc(C(=O)NS(=O)(=O)c4ccc(N[C@H](CCN5CCOCC5)CSc5ccccc5)c(S(=O)(=O)C(F)(F)F)c4)cc3)CC2)C1
2. CC/C(=C\c1ccc(N(C)C)cc1)c1ccncc1
3. Nc1ccc(Oc2ccc(C3(c4ccc(Oc5ccc(N)c(O)c5)cc4)C4CC5CC(C4)CC3C5)cc2)cc1O
4. Cc1n[nH]c(C)c1-c1c(C)n[nH]c1C

Marked response:
1: 3.24 µM; 2: > 100 µM; 3: 6.16 µM; 4: 4.96 µM

###

Provide the reported TGI of each item.
tested on: 786-0 renal; assay: NCI tumour cell line growth inhibition, 48 h
Answers are plain numbers, in µM.

Could you tell me TGI for each of these molecules? They are listed below.
1. COc1ccc2c(c1)c(-c1nc(-c3cn(C)c4ncccc34)cs1)cn2CCCCN1CCCCC1
2. CC12CCC(C(=Nc3ccc([N+](=O)[O-])cc3)C1=O)C2(C)C (stereo not given)
3. CC(C)CCNC(=O)c1ccc(CNC(=O)/C=C/c2ccc3c(c2)-c2ccccc2C3)cc1
4. CC(=O)Nc1ccc(S(=O)(=O)N2C(=O)CCC2C(=O)Nc2ccccc2)cc1 (stereo not given)

Marked response:
1: 3.06; 2: 78.5; 3: 81.1; 4: 13.3

###

test system: MOLT-4 leukemia; experiment: NCI tumour cell line growth inhibition, 48 h
Provide the reported TGI of each item.

Here are 5 molecules together with their reported answers.
O=C1/C(=C/c2ccc(Cl)cc2)NC(=S)N1CN1CCCCC1 ... > 100 µM
O=C(c1ccccc1)N1N=C(C(F)(F)F)CC1(O)C(F)(F)F (centres undefined) ... > 100 µM
Cc1ccc(CNc2ccc(Cl)cc2NCc2ccc(C)c(O)c2)cc1O ... 14.7 µM
CCN(CC)CCCC(C)Nc1ccnc2cc(OC)ccc12 (centres undefined) ... 74.5 µM
Nc1ncnc2c1ncn2C1SC(CO)C(O)C1O (centres undefined) ... > 100 µM

Could you tell me TGI for each of these molecules? They are listed below.
1. CC(C)CC(=O)O[C@H]1C(=O)O[C@@H]2C[C@H]3[C@H](C)C(=O)C(O[C@@H]4O[C@H](CO)[C@@H](O)[C@H](O)[C@H]4O)=C[C@]3(C)[C@H]3[C@@H](O)[C@H](O)[C@]4(C(=O)O)OC[C@]32[C@@H]14
2. O=C(NC(=Nc1ccccc1)SCCSC(=Nc1ccccc1)NC(=O)c1ccccc1)c1ccccc1
3. FC(F)(F)c1ccc2c(c1)nc(Cc1ccc(Cl)cc1)n2CC1CCCN2CCCCC12 (centres undefined)
4. FC(F)(F)c1ccc(-c2cnc(-c3nn[nH]n3)nc2NC2CCCCCC2)cc1

Marked response:
1: > 100 µM; 2: > 100 µM; 3: 10.4 µM; 4: > 10 µM

###

Provide the reported TGI of each item.
system: OVCAR-3 ovarian; assay: NCI tumour cell line growth inhibition, 48 h

Could you tell me TGI for each of these compounds? They are listed below.
1. Fc1cnccc1-c1nc2ccc3[nH]ncc3c2c2c1CCCC2
2. Cc1ccc(CNc2ccc(Cl)cc2NCc2ccc(C)c(O)c2)cc1O
3. COc1ccc(C2OC2C(=O)C23CC4CC(CC(C4)C2)C3)cc1 (stereo unspecified)
4. c1c[nH]c(CN2CCN(Cc3ncc[nH]3)CC2)n1

Marked response:
10.9 µM
13.9 µM
> 100 µM
> 100 µM

Could you tell me TGI for each of these compounds? They are listed below.
1. NC(C(=O)O)C(O)c1cnc[nH]1 (stereo unspecified)
2. COC(=O)c1nc2n(n1)-c1ccccc1C(=O)N(Cc1ccccc1)C2

Marked response:
1. > 100 µM
2. > 100 µM

###

tested on: UACC-257 melanoma; assay: NCI tumour cell line growth inhibition, 48 h
MEASURED_PARAMETER: log10 of TGI (log10 of the value in µM)
The common logarithm of TGI in µM is what is listed.

Here are 5 compounds together with their reported answers.
CS(=O)(=O)Sc1ccc(Cl)cc1 ... 1.31
FC(F)(F)c1ccc2c(c1)nc(Cc1ccc(Cl)cc1)n2CC1CCCN2CCCCC12 (centres undefined) ... 0.92
O=[N+]([O-])C1=Cc2c(O)ccc(O)c2C2c3ccccc3NC12 (centres undefined) ... 1.47
c1ccc2sc(C3(N4CCCCCC4)CCCCC3)cc2c1 ... 1.70
CN(C)CCCCN1c2ccccc2Sc2ccc(N=[N+]=[N-])cc21 ... 0.55

Could you tell me log10 of TGI for each of these compounds? They are listed below.
1. CCn1c(O)c(C(=O)Nc2cccs2)c(=O)n(CC)c1=S
2. COC(=O)[C@]1(CCC(C)=O)C(=O)C=CN([C@H](C)c2ccccc2)[C@@H]1Cc1ccc(OC)c(OCc2ccccc2)c1I
3. N#CSc1c[nH]c2cccc(/C=C/C(=O)/C=C(O)/C=C/c3cccc4[nH]cc(SC#N)c34)c12

Marked response:
[1.75, 1.51, 0.53]

Could you tell me log10 of TGI for each of these compounds? They are listed below.
1. CCCN1CCCC(c2ccc(Nc3nc(Nc4cc(F)ccc4C(N)=O)c4cc[nH]c4n3)c(OC)c2)C1 (centres undefined)
2. NC1=Nc2cc(OCCCCN3Cc4ccccc4C3)c(OCC3CC3)cc2C12CCCC2
3. COc1cc(/C=C2\C(=O)Nc3ccc(O)cc32)cc(OC)c1OC
4. COc1cc(N(CCC#N)CCC#N)ccc1/C(N=Nc1cccc([N+](=O)[O-])c1)=N\NC(=O)c1ccc(C)cc1
5. CC(=O)[O-].O=C([CH-]C(=O)c1ccccc1)c1ccccc1.O=C([CH-]C(=O)c1ccccc1)c1ccccc1.[Dy+3]

Marked response:
1. 0.66
2. 0.54
3. 1.34
4. 1.78
5. 1.61

Could you tell me log10 of TGI for each of these compounds? They are listed below.
1. COC1=C(OC)C(=O)c2cc(C)c(=O)c(C)cc2C1=O
2. O=c1c2cc(F)ccc2sc2c(NCCCNCCO)nc3ccc(F)cc3c12
3. COC(=O)C#CC1(O)C=CC(=O)C=C1
4. O=C(/C=C/c1c[nH]c2ccccc12)c1ccccc1O
5. CCN(CC)CCCC(C)Nc1ccnc2cc(OC)ccc12 (centres undefined)
6. COc1cc(C(=O)N[C@@H]2CCCN(C)C2)ccc1Nc1ncc2c(n1)N(C1CCCC1)CC(C)(C)C(=O)N2C

Marked response:
1: 1.41; 2: 0.61; 3: 0.56; 4: 1.50; 5: 1.53; 6: 0.42

These data points were gathered from PubChem BioAssay (NCI).
